targetOfAssay: Dual specificity mitogen-activated protein kinase kinase 1 (Homo sapiens)
runDescription: Inhibition of MEK1
readoutName: IC50
Remember to follow the number with its unit.

Query :: Give recorded IC50 with Dual specificity mitogen-activated protein kinase kinase 1 (Homo sapiens) for the following molecule: C[C@@H](c1ccccc1)[C@@H](C(=O)Nc1ccc(I)cc1F)N1C(=O)N[C@H](c2ccc(OC[C@H](O)CO)cc2)C1=O
Result :: 25 nM

###

runDescription: Cmax in human HT-29 cells expressing B-Raf V600E mutant xenografted nude mouse at 100 mg/kg, po bid
Format: ADME, organism-based
Design: dose 100 mg/kg, route oral
testContext: in vivo
readoutName: Cmax
Remember to follow the number with its unit.

Query :: // returns reported Cmax for input C[C@@H](c1ccccc1)[C@@H](C(=O)Nc1ccc(I)cc1F)N1C(=O)N[C@H](c2ccc(OC[C@H](O)CO)cc2)C1=O
Result :: 4070 ng/mL

###

runDescription: Cmax in human LOX cells expressing B-Raf V600E mutant xenografted nude mouse at 25 mg/kg, po bid
Format: ADME, organism-based
Parameters: dose 25 mg/kg, route oral
testContext: in vivo
readoutName: Cmax

Query :: // returns reported Cmax for input C[C@@H](c1ccccc1)[C@@H](C(=O)Nc1ccc(I)cc1F)N1C(=O)N[C@H](c2ccc(OC[C@H](O)CO)cc2)C1=O
Result :: 3790 ng/mL

###

runDescription: AUC (0 to 24 hrs) in human H460 cells expressing K-Ras Q61H mutant xenografted nude mouse at 200 mg/kg, po qd
Assay type: ADME, organism-based
Parameters: time < 24 hr, dose 200 mg/kg, route oral
testContext: in vivo
readoutName: AUC at 24 h (µg·h/mL)
Give the quantity in µg·h/mL, number only.

Query :: // returns reported AUC at 24 h for input C[C@@H](c1ccccc1)[C@@H](C(=O)Nc1ccc(I)cc1F)N1C(=O)N[C@H](c2ccc(OC[C@H](O)CO)cc2)C1=O
Result :: 122

###

Test system: Mus musculus
runDescription: Inhibition of MEK-mediated ERK phosphorylation in po dosed human HT-29 cells expressing B-Raf V600E mutant xenografted nude mouse plasma by Western blot analysis
Type: functional, organism-based
testContext: HT-29, Plasma
readoutName: pEC50
The read-out pEC50 is expressed as -log10 of concentration in moles per litre.

Query :: // returns reported pEC50 for input C[C@@H](c1ccccc1)[C@@H](C(=O)Nc1ccc(I)cc1F)N1C(=O)N[C@H](c2ccc(OC[C@H](O)CO)cc2)C1=O
Result :: 5.47

###

runDescription: Drug level in human HT-29 cells expressing B-Raf V600E mutant xenografted nude mouse tumor at 100 mg/kg, po after 4 hrs
Assay type: ADME, organism-based, Neoplasm
Design: dose 100 mg/kg, route oral
testContext: read-out: Drug uptake
readoutName: concentration at 4 h (ng/g)
Give the quantity in ng/g, number only.

Query :: // returns reported concentration at 4 h for input C[C@@H](c1ccccc1)[C@@H](C(=O)Nc1ccc(I)cc1F)N1C(=O)N[C@H](c2ccc(OC[C@H](O)CO)cc2)C1=O
Result :: 945

###

runDescription: AUC (0 to 12 hrs) in human H460 cells expressing K-Ras Q61H mutant xenografted nude mouse at 50 mg/kg, po bid
Assay type: ADME, organism-based
Set-up: time < 12 hr, dose 50 mg/kg, route oral
testContext: in vivo
readoutName: AUC at 12 h (ng·h/mL)
Give the quantity in ng·h/mL, number only.

Query :: // returns reported AUC at 12 h for input C[C@@H](c1ccccc1)[C@@H](C(=O)Nc1ccc(I)cc1F)N1C(=O)N[C@H](c2ccc(OC[C@H](O)CO)cc2)C1=O
Result :: 23300

###

runDescription: AUC (0 to 12 hrs) in human LOX cells expressing B-Raf V600E mutant xenografted nude mouse at 6.25 mg/kg, po bid
Type: ADME, organism-based
Design: time < 12 hr, dose 6.25 mg/kg, route oral
testContext: in vivo
readoutName: AUC at 12 h (ng·h/mL)
Give the quantity in ng·h/mL, number only.

Query :: // returns reported AUC at 12 h for input C[C@@H](c1ccccc1)[C@@H](C(=O)Nc1ccc(I)cc1F)N1C(=O)N[C@H](c2ccc(OC[C@H](O)CO)cc2)C1=O
Result :: 3970

###

runDescription: Cmax in human MIAPaCa2 cells expressing K-Ras G12C mutant xenografted nude mouse at 200 mg/kg, po qd
Assay type: ADME, organism-based, MIA PaCa-2
Parameters: dose 200 mg/kg, route oral
testContext: in vivo
readoutName: Cmax (ng/mL)
Give the quantity in ng/mL, number only.

Query :: // returns reported Cmax for input C[C@@H](c1ccccc1)[C@@H](C(=O)Nc1ccc(I)cc1F)N1C(=O)N[C@H](c2ccc(OC[C@H](O)CO)cc2)C1=O
Result :: 15500

###

targetOfAssay: Dual specificity mitogen-activated protein kinase kinase 1 (Homo sapiens, UniProt Q02750)
Sequence (Q02750 whole entry): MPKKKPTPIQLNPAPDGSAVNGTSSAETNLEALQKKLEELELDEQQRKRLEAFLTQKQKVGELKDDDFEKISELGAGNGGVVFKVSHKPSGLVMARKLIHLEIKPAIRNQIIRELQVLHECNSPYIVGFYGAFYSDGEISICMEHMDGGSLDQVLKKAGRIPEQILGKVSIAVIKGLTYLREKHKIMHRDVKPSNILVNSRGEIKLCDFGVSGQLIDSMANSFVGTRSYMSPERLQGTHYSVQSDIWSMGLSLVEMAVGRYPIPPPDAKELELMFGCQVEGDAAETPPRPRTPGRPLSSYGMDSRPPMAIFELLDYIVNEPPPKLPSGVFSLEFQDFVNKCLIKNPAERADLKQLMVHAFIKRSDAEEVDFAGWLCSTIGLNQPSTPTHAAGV
runDescription: Inhibition of MEK1 in human MIA PaCa-2 cells assessed as inhibition of ERK phosphorylation by Western blot analysis
Type: cell-based
readoutName: pIC50
The read-out pIC50 is expressed as -log10 of concentration in moles per litre.

Query :: // returns reported pIC50 for input C[C@@H](c1ccccc1)[C@@H](C(=O)Nc1ccc(I)cc1F)N1C(=O)N[C@H](c2ccc(OC[C@H](O)CO)cc2)C1=O
Result :: 7.16

###

runDescription: Drug level in human LOX cells expressing B-Raf V600E mutant xenografted nude mouse tumor at 100 mg/kg, po after 2 hrs
Format: ADME, organism-based, Neoplasm
Set-up: dose 100 mg/kg, route oral
testContext: read-out: Drug uptake
readoutName: concentration at 2 h (ng/g)
Give the quantity in ng/g, number only.

Query :: // returns reported concentration at 2 h for input C[C@@H](c1ccccc1)[C@@H](C(=O)Nc1ccc(I)cc1F)N1C(=O)N[C@H](c2ccc(OC[C@H](O)CO)cc2)C1=O
Result :: 3040

###

targetOfAssay: Dual specificity mitogen-activated protein kinase kinase 1 (Homo sapiens)
runDescription: Inhibition of MEK1 in human LOX cells assessed as inhibition of ERK phosphorylation by Western blot analysis
Type: cell-based
readoutName: pIC50
The read-out pIC50 is expressed as -log10 of concentration in moles per litre.

Query :: // returns reported pIC50 for input C[C@@H](c1ccccc1)[C@@H](C(=O)Nc1ccc(I)cc1F)N1C(=O)N[C@H](c2ccc(OC[C@H](O)CO)cc2)C1=O
Result :: 7.66

###

runDescription: Plasma concentration in human LOX cells expressing B-Raf V600E mutant xenografted nude mouse at 100 mg/kg, po after 4 hrs
Type: ADME, organism-based
Design: dose 100 mg/kg, route oral
readoutName: concentration at 4 h

Query :: // returns reported concentration at 4 h for input C[C@@H](c1ccccc1)[C@@H](C(=O)Nc1ccc(I)cc1F)N1C(=O)N[C@H](c2ccc(OC[C@H](O)CO)cc2)C1=O
Result :: 4140 ng/mL

###

runDescription: Plasma concentration in human LOX cells expressing B-Raf V600E mutant xenografted nude mouse at 100 mg/kg, po after 8 hrs
Assay type: ADME, organism-based
Parameters: dose 100 mg/kg, route oral
readoutName: concentration at 8 h (ng/mL)
Give the quantity in ng/mL, number only.

Query :: // returns reported concentration at 8 h for input C[C@@H](c1ccccc1)[C@@H](C(=O)Nc1ccc(I)cc1F)N1C(=O)N[C@H](c2ccc(OC[C@H](O)CO)cc2)C1=O
Result :: 1410

###

runDescription: Plasma concentration in human LOX cells expressing B-Raf V600E mutant xenografted nude mouse at 100 mg/kg, po after 12 hrs
Type: ADME, organism-based
Parameters: dose 100 mg/kg, route oral
readoutName: concentration at 12 h (ng/mL)
Give the quantity in ng/mL, number only.

Query :: // returns reported concentration at 12 h for input C[C@@H](c1ccccc1)[C@@H](C(=O)Nc1ccc(I)cc1F)N1C(=O)N[C@H](c2ccc(OC[C@H](O)CO)cc2)C1=O
Result :: 72

###

runDescription: Drug level in human LOX cells expressing B-Raf V600E mutant xenografted nude mouse tumor at 100 mg/kg, po after 12 hrs
Format: ADME, organism-based, Neoplasm
Parameters: dose 100 mg/kg, route oral
testContext: read-out: Drug uptake
readoutName: concentration at 12 h (ng/g)
Give the quantity in ng/g, number only.

Query :: // returns reported concentration at 12 h for input C[C@@H](c1ccccc1)[C@@H](C(=O)Nc1ccc(I)cc1F)N1C(=O)N[C@H](c2ccc(OC[C@H](O)CO)cc2)C1=O
Result :: 318

###

runDescription: Plasma concentration in human HT-29 cells expressing B-Raf V600E mutant xenografted nude mouse at 100 mg/kg, po after 2 hrs
Format: ADME, organism-based
Parameters: dose 100 mg/kg, route oral
readoutName: concentration at 2 h (ng/mL)
Give the quantity in ng/mL, number only.

Query :: // returns reported concentration at 2 h for input C[C@@H](c1ccccc1)[C@@H](C(=O)Nc1ccc(I)cc1F)N1C(=O)N[C@H](c2ccc(OC[C@H](O)CO)cc2)C1=O
Result :: 9360
